From: patent US20250275969A1

System: HS-PSS
Assay: MPNST viability assay (6 days, MTT or AlamarBlue)
Assay type: cell-based
Conditions: cell viability, 6 days of treatment
test.readout: EC50 (nM)
Please reply with the bare figure in nM and do not write the unit itself.

Which EC50 reading was recorded for the compound COc1cc([C@@H]2c3cc4c(cc3[C@@H](O[C@@H]3O[C@@H]5CO[C@@H](C)O[C@H]5[C@H](O)[C@H]3O)[C@H]3COC(=O)[C@H]23)OCO4)cc(OC)c1O [etoposide] ?
205
